Experiment: Selectivity index, ratio of CC50 for human C8166 cells to EC50 for HIV1 3B
Assay type: toxicity, cell-based
Conditions: read-out: Ratio CC50/EC50
Hi! Could you tag entries with selectivity ratio below 6 as class 1, and those at or above as class 0? Much appreciated.

Examples with answers:
[[record]]
molecule = "COc1cc(C[C@@H](C)[C@@H](C)Cc2ccc(OC)c(OC)c2)ccc1O"
assigned_class = "class 1"

[[record]]
molecule = "COc1ccc([C@H]2O[C@@H](c3ccc(OC)c(OC)c3)[C@H](C)[C@@H]2C)cc1OC [GALGRAVIN]"
assigned_class = "class 1"

[[record]]
molecule = "C/C=C(\\C)C(=O)O[C@H]1c2cc(OC)c(OC)c(OC)c2-c2c(cc3c(c2OC)OCO3)[C@H](OC(=O)/C=C/c2ccccc2)[C@H](C)[C@]1(C)O"
assigned_class = "class 0"

[[record]]
molecule = "C/C=C(\\C)C(=O)O[C@H]1c2cc(OC)c(OC)c(OC)c2-c2c(cc3c(c2OC)OCO3)[C@H](OC(=O)c2ccccc2)[C@H](C)[C@H]1C"
assigned_class = "class 1"

[[record]]
molecule = "COc1ccc([C@@H]2O[C@H](c3ccc4c(c3)OCO4)[C@@H](C)[C@@H]2C)cc1O"
assigned_class = "class 1"

[[record]]
molecule = "CCCCCC(=O)O[C@H]1c2cc3c(c(OC)c2-c2c(cc(OC)c(OC)c2OC)[C@H](OC(=O)c2ccccc2)[C@@](C)(O)[C@H]1C)OCO3"
assigned_class = "class 1"

[[record]]
molecule = "COc1ccc(CC(C)C(C)Cc2cc(OC)c(OC)c(OC)c2)cc1OC (centres undefined) [TIEGUSANIN N]"
assigned_class = "class 1"

[[record]]
molecule = "COc1ccc([C@H]2O[C@H](c3ccc4c(c3)OCO4)[C@@H](C)[C@H]2C)cc1OC"
assigned_class = "class 0"


Is it true that selectivity ratio reported for COc1cc2c(c(OC)c1OC)-c1c(cc3c(c1OC)OCO3)C(=O)[C@@H](C)[C@@H](C)C2 is less than 6?
class 0

Is it true that selectivity ratio reported for COc1cc(C[C@@H](C)[C@@H](C)Cc2ccc(O)c(OC)c2)ccc1O [MESODIHYDROGUAIARETIC ACID] is less than 6?
class 0

Is it true that selectivity ratio reported for COc1c(O)cc2c(c1OC)-c1c(cc3c(c1OC)OCO3)C[C@@H](C)[C@@H](C)[C@H]2OC(=O)/C=C/c1ccccc1 [TIEGUSANIN L] is less than 6?
class 0

Is it true that selectivity ratio reported for Cc1cn([C@H]2C[C@H](N=[N+]=[N-])[C@@H](CO)O2)c(=O)[nH]c1=O [ZIDOVUDINE] is less than 6?
class 0

====

Assay: Selectivity index, ratio of CC50 for human C8166 cells to EC50 for HIV1 3B
Format: toxicity, cell-based
Conditions: read-out: Ratio CC50/EC50
READOUT_TYPE: selectivity ratio

# count of solved cases: 5
[[record]]
given_smiles = "C/C=C(\\C)C(=O)Oc1c(OC)c(OC)cc2c1-c1c(cc(OC)c(OC)c1OC)[C@H](O)[C@H](C)[C@H](C)C2"
result = "> 12.7"

[[record]]
given_smiles = "COc1cc2c(c(OC)c1OC)-c1c(cc3c(c1OC)OCO3)[C@H](OC(=O)c1ccccc1)[C@H](C)[C@](C)(O)[C@H]2OC(=O)c1ccccc1"
result = "> 8.7"

[[record]]
given_smiles = "CC[C@H](C)C(=O)Oc1c(OC)c(OC)cc2c1-c1c(cc(OC)c(OC)c1OC)[C@H](O)[C@H](C)[C@H](C)C2"
result = "> 6.7"

[[record]]
given_smiles = "COc1cc2c(c(OC)c1OC)-c1c(cc(OC)c(OC)c1OC(=O)c1ccccc1)[C@H](O)[C@H](C)[C@H](C)C2"
result = "> 10.8"

[[record]]
given_smiles = "COc1ccc(C[C@@H](C)[C@@H](C)Cc2ccc(OC)c(OC)c2)cc1OC"
result = 2


State, in one line, measured selectivity ratio of C/C=C(/C)C(=O)O[C@H]1c2cc(OC)c(OC)c(OC)c2-c2c(cc3c(c2OC)OCO3)[C@H](OC(C)=O)[C@H](C)[C@@H]1C
> 20.2

State, in one line, measured selectivity ratio of COc1cc2c(cc1O)C[C@@H](C)[C@@H](C)[C@@H]2c1ccc(OC)c(OC)c1
6.7

Where do the numbers come from? From ChEMBL document CHEMBL1153019.
